// Ki lookup, one value per entry
Target: human H3 receptor (Homo sapiens, UniProt Q9Y5N1)
Sequence (Q9Y5N1 whole entry): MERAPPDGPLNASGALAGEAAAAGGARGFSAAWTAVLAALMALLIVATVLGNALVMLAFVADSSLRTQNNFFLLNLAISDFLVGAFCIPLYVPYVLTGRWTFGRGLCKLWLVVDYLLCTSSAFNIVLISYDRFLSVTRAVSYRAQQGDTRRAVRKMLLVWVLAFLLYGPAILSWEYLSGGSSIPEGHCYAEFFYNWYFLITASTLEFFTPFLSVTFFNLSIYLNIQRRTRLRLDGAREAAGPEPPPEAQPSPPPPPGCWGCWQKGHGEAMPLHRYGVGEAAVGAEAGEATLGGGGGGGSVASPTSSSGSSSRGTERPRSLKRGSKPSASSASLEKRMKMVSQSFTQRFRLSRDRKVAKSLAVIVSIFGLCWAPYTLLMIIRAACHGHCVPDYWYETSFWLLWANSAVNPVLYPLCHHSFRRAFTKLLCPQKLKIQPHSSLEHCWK
Experiment: H3 affinity, radioligand binding assay employing [3H](R)-α-methylhistamine
Settings: 5-point concentration response curves; read-out: H3 Ki
Answer in µM, number only, no unit symbol.

Please review the entries below; each comes with its answer.
CN(C)CCCOc1ccc(CCNC(=O)c2cc(Br)c[nH]2)cc1Br: 1.1
O=C(NCCc1ccc(OCCN2CCCC2)c(Br)c1)c1nnc[nH]1: 0.43
O=C(NCCc1ccc(OCCN2CCCC2)c(Cl)c1)c1cc(Br)cs1: 0.16
CN(C)CCCOc1ccc(CCNC(=O)c2ccc(Br)o2)cc1Br: 2.2
CN1CCCC(COc2ccc(CCNC(=O)c3ccc[nH]3)cc2Br)C1 (stereo not drawn): 1.5

Kindly consider the entry below.
Ki in this record for CN(C)CCCOc1ccc(CCNC(=O)c2cc(Br)cs2)cc1Br : 1.6

----------
Target: human H3 receptor (Homo sapiens, UniProt Q9Y5N1)
Assay: H3 antagonist activity / inhibition (IC50)
Type: biochemical
Conditions: 5-point concentration response curves; read-out: H3 IC50
Each record here notes measured IC50.
Unit nM implied. Number only.

Here's what some known entries look like.
O=C(NCCc1ccc(OCCN2CCCC2)c(Br)c1)c1cc(Br)cs1: 180
CN(C)CCCOc1ccc(CCNC(=O)c2ccc[nH]2)cc1Br: 2900
CN1CCCC(COc2ccc(CCNC(=O)c3ccc(Br)o3)cc2Br)C1 (stereo not shown): 4500

The record that follows has no IC50 shown yet.
The measured IC50 associated with O=C(NCCc1ccc(OCCN2CCCC2)c(Br)c1)c1cccc(Br)c1 reads 450
